System: corn (Zea mays)
test-name: Test A postemergence, corn
Format: in vivo
condition-details: 500 g ai/ha, 0 to 100 scale (0 no effect, 100 complete control)
recorded-metric: Plant response rating, Corn
Please respond with just the number, no unit label.

A selection of reference data follows.
CC1(C)CC(S(=O)(=O)Cc2c(C(F)(F)F)nc3n(c2=O)CCO3)=NO1 = 50
CCn1c(=O)c(C[S+]([O-])C2=NOC(C)(C)C2)nc2ccccc21 (stereo not shown) = 0
CC1(C)CC([S+]([O-])Cc2c(C(F)(F)Cl)nc3n(c2=O)CCCC3)=NO1 (stereo not shown) = 0

IN: Look at this compound and give its reported Plant response rating, Corn. CC1(C)CC([S+]([O-])Cc2c(C(F)(F)F)nc3cnccn3c2=O)=NO1 (stereo not shown)
OUT: 0

IN: Look at this compound and give its reported Plant response rating, Corn. CC1(C)CC(S(=O)(=O)Cc2c(C(F)(F)C(F)(F)F)nc3n(c2=O)CCCO3)=NO1
OUT: 0

IN: Look at this compound and give its reported Plant response rating, Corn. CC1(C)CC(S(=O)(=O)Cc2c(C(F)(F)Cl)nc3n(c2=O)CCC3)=NO1
OUT: 40

IN: Look at this compound and give its reported Plant response rating, Corn. CC1(C)CC([S+]([O-])Cc2c(C(F)(F)C(F)(F)F)nc3n(c2=O)CCCS3)=NO1 (stereo not shown)
OUT: 20

====

Tested on: wheat (Triticum aestivum)
test-name: Test A postemergence, wheat
Format: in vivo
condition-details: 500 g ai/ha, 0 to 100 scale (0 no effect, 100 complete control)
recorded-metric: Plant response rating, Wheat
Please respond with just the number, no unit label.

CC1(C)CC([S+]([O-])Cc2c(C(F)(F)F)nc3n(c2=O)CCCCC3)=NO1 (stereo not drawn) = 20
Cc1cc2nc(C(F)(F)F)c(CS(=O)(=O)C3=NOC(C)(C)C3)c(=O)n2o1 = 20

IN: Record lookup: for wheat (Triticum aestivum), what Plant response rating, Wheat belongs to CC1(C)CC(S(=O)(=O)Cc2c(C(F)(F)F)nc3cnccn3c2=O)=NO1 ?
OUT: 30

IN: Record lookup: for wheat (Triticum aestivum), what Plant response rating, Wheat belongs to Cc1con2c(=O)c(CS(=O)(=O)C3=NOC(C)(C)C3)c(C(F)(F)F)nc12 ?
OUT: 0

IN: Record lookup: for wheat (Triticum aestivum), what Plant response rating, Wheat belongs to CCn1c(=O)c(C[S+]([O-])C2=NOC(C)(C)C2)nc2cccnc21 (stereo not drawn) ?
OUT: 10

IN: Record lookup: for wheat (Triticum aestivum), what Plant response rating, Wheat belongs to Cc1con2c(=O)c(C[S+]([O-])C3=NOC(C)(C)C3)c(C(F)(F)F)nc12 (stereo not drawn) ?
OUT: 0

IN: Record lookup: for wheat (Triticum aestivum), what Plant response rating, Wheat belongs to Cn1c(=O)c(CS(=O)(=O)C2=NOC(C)(C)C2)c(C(F)(F)F)c2ccccc21 ?
OUT: 0

====

Reported Plant response rating, Blackgrass values for a set of molecules
System: blackgrass (Alopecurus myosuroides)
test-name: Test B preemergence, blackgrass
Format: in vivo
condition-details: 16 g ai/ha, scale 0 to 100
Please respond with just the number, no unit label.

IN: Look at this molecule and give its reported Plant response rating, Blackgrass. CC1(C)CC(S(=O)(=O)Cc2c(C(F)(F)F)nc3ccsn3c2=O)=NO1
OUT: 10

IN: Look at this molecule and give its reported Plant response rating, Blackgrass. CC1(C)CC(S(=O)(=O)Cc2c(C(F)(F)Cl)nc3n(c2=O)CCC3)=NO1
OUT: 0

IN: Look at this molecule and give its reported Plant response rating, Blackgrass. CC1(C)CC(S(=O)(=O)Cc2c(C(F)(F)F)nc3n(c2=O)CCO3)=NO1
OUT: 0

IN: Look at this molecule and give its reported Plant response rating, Blackgrass. CC1(C)CC(S(=O)(=O)Cc2c(C(F)(F)F)nc3n(c2=O)CCS3)=NO1
OUT: 50
